assay_system: T1, LILRA6
T1 construct: also called LILRA6 reporter cells
T1 sequence (chain, as listed by the source limits assumed): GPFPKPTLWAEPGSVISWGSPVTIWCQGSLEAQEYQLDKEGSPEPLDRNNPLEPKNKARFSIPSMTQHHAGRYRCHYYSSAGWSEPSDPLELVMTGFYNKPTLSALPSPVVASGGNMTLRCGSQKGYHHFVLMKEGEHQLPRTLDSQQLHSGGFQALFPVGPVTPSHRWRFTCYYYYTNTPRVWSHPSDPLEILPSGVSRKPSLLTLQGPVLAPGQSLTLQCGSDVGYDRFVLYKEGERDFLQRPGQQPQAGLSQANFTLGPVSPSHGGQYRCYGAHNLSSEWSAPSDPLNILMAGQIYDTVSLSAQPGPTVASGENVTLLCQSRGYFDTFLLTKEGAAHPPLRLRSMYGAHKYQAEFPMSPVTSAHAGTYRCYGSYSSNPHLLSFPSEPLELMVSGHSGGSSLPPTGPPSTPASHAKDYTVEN
assay_summary: flow cytometry, reporter cells

# binder, binding result
records = [
    ("B2-17 (antibody, V domains shown, also called B2-17_HC; B2-17_LC) VH: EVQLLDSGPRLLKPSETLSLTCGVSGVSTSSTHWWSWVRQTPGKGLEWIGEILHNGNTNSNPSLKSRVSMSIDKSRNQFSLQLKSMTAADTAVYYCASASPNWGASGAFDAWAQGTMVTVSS VL: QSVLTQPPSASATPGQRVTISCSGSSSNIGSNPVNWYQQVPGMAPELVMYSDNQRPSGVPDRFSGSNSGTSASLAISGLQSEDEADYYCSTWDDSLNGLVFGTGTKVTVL", "no binding"),
    ("B2-7 (antibody, V domains shown, also called B2-7_HC; B2-7_LC) VH: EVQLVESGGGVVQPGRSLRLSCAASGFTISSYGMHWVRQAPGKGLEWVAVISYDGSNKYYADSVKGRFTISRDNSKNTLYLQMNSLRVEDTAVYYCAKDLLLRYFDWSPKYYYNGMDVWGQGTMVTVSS VL: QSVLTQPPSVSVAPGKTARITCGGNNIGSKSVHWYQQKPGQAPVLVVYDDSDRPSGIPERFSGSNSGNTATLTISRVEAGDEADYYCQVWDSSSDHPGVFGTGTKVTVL", "no binding"),
    ("B2-16 (antibody, V domains shown, also called B2-16_HC; B2-16_LC) VH: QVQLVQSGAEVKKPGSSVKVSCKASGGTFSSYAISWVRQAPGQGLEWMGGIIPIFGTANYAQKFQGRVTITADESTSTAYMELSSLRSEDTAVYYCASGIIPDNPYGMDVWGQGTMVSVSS VL: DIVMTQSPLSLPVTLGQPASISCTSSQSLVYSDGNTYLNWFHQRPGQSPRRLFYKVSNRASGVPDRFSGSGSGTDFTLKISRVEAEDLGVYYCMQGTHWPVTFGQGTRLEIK", "no binding"),
]
